- Measurement Protocol: Solubility in biorelevant fasted state simulated intestinal fluid (FaSSIF)
- Format: physicochemical
- Condition Set: 25 °C, fassif, kinetic from dmso stock, Solubility
Kindly supply the reported solubility values for the records listed here.
Supply the numeric figure in µM, leaving out any unit text.

[ask] Please report the recorded solubility for CN[C@H]1CC[C@H](OC(=O)[C@H]2CC[C@H]([C@@](C)(O)c3ccc(-c4cc(C)cc(Nc5cc(C(F)F)ccn5)n4)cn3)CC2)CC1 .
[reply] 141

[ask] Item Cc1cc(Nc2cc(C(F)F)ccn2)nc(-c2ccc([C@](C)(O)[C@H]3CC[C@H](C(=O)OCC[S@@+](C)[O-])CC3)nc2)c1 (single isomer, unassigned) has what recorded solubility?
[reply] 56

[ask] Please report the recorded solubility for Cc1cc(Nc2cc(C(F)F)ccn2)nc(-c2ccc([C@](C)(O)[C@H]3CC[C@H](C(=O)O[C@H]4C[C@H](N)C4)CC3)nc2)c1 .
[reply] 98

[ask] Given the entry Cc1cc(Nc2cc(C(F)F)ccn2)nc(-c2ccc([C@](C)(O)[C@H]3CC[C@H](C(=O)OCOC(=O)OCCCCCCN)CC3)nc2)c1 , report its measured solubility.
[reply] 167

[ask] For the compound shown here, Cc1cc(Nc2cc(C(F)F)ccn2)nc(-c2ccc([C@](C)(O)[C@H]3CC[C@H](C(=O)OC[C@@H]4COC(C)(C)O4)CC3)nc2)c1 , give the reported solubility.
[reply] 126

[ask] For CO[C@H]1O[C@H](COC(=O)[C@H]2CC[C@H]([C@@](C)(O)c3ccc(-c4cc(C)cc(Nc5cc(C(F)F)ccn5)n4)cn3)CC2)[C@@H](O)[C@H](O)[C@H]1O , what is its reported solubility?
[reply] 109

[ask] # lookup: solubility of Cc1cc(Nc2cc(C(F)F)ccn2)nc(-c2ccc([C@](C)(O)[C@H]3CC[C@H](C(=O)OCn4cc[n+](C)c4)CC3)nc2)c1
[reply] 140

[ask] Dear colleague, I am looking for the recorded solubility of the following compound: CC[N+]1(COC(=O)[C@H]2CC[C@H]([C@@](C)(O)c3ccc(-c4cc(C)cc(Nc5cc(C(F)F)ccn5)n4)cn3)CC2)CCCCC1
[reply] 200

[ask] Which solubility reading was recorded for the compound CCCC[N+](CC)(CC)COC(=O)[C@H]1CC[C@H]([C@@](C)(O)c2ccc(-c3cc(C)cc(Nc4cc(C(F)F)ccn4)n3)cn2)CC1 ?
[reply] 152
